tested on: high level vancomycin resistant E. faecium (vanA) ATCC 51559; assay: microbe, parasite or virus in culture; conditions: Table 6; high level vancomycin resistant E. faecium ATCC51559
Numbered stars: 1 amine (or outer) side, 2 acyl side, 3 side chain; on linkers, the order of the positions; unused ones are H or OH. Bridge positions count the residues as written; N and C are the ends. Square brackets hold non-standard residues; d marks the D form. Peptide text beside a SMILES is read from it. TBMB = c1c(C[*:1])cc(C[*:3])cc1C[*:2]
PROPERTY_MEASURED: MIC VRE (vanA)

Sample CSCC[C@H]1NC(=O)[C@@H](CC(=O)O)NC(=O)[C@H]2CSCc3cc(cc(c3)CSC[C@H](C(N)=O)NC(=O)[C@@H](Cc3c[nH]cn3)NC(=O)[C@@H](CC(C)C)NC1=O)CSC[C@@H](N)C(=O)N[C@H](CCC(N)=O)C(=O)N[C@H](Cc1ccc(O)cc1)C(=O)N[C@H](CC(N)=O)C(=O)N[C@H](CC(=O)O)C(=O)N2 [P16, COYNDCDMLHC] (H-[dC][dQ][dY][dN][dD][dC][dD][dM][dL][dH][dC]-NH2; linker 1-6-11 via TBMB) ; MIC VRE (vanA) observed: >256 µg/mL

----------
tested on: high level vancomycin resistant E. faecium (vanA) ATCC 51559; test: microbe, parasite or virus in culture; settings: ATCC 51559
Square brackets hold non-standard residues; d marks the D form. Peptide text beside a SMILES is read from it.
PROPERTY_MEASURED: MIC VRE (vanA)

The value of MIC VRE (vanA) measured for the compound CC(C)C[C@@H](NC(=O)[C@@H](Cc1ccccc1)NC(=O)CNC(=O)[C@H](N)[C@H](C)O)C(=O)N[C@@H](C(=O)N[C@H](CC(N)=O)C(=O)N[C@@H](C(N)=O)C(C)C)C(C)C [P7, TGFLVNV] (H-[dT]G[dF][dL][dV][dN][dV]-NH2) turned out to be >256 µg/mL

----------
tested on: E. coli ATCC 25992; experiment: microbe, parasite or virus in culture; conditions: Table 6; E. Coli ATCC25992
Numbered stars: 1 amine (or outer) side, 2 acyl side, 3 side chain; on linkers, the order of the positions; unused ones are H or OH. Bridge positions count the residues as written; N and C are the ends. Square brackets hold non-standard residues; d marks the D form. Peptide text beside a SMILES is read from it. TBMB = c1c(C[*:1])cc(C[*:3])cc1C[*:2]
PROPERTY_MEASURED: MIC E. coli

// field: MIC E. coli; key: CSCC[C@H]1NC(=O)[C@@H](CC(=O)O)NC(=O)[C@H]2CSCc3cc(cc(c3)CSC[C@H](C(N)=O)NC(=O)[C@@H](Cc3c[nH]cn3)NC(=O)[C@@H](CC(C)C)NC1=O)CSC[C@@H](N)C(=O)N[C@H](CCC(N)=O)C(=O)N[C@H](Cc1ccc(O)cc1)C(=O)N[C@H](CC(N)=O)C(=O)N[C@H](CC(=O)O)C(=O)N2 [P16, COYNDCDMLHC] (H-[dC][dQ][dY][dN][dD][dC][dD][dM][dL][dH][dC]-NH2; linker 1-6-11 via TBMB) ; value = >256 µg/mL

----------
For each entry below, report its MIC E. faecalis value.
Test system: E. faecalis ATCC 29121
Assay: microbe, parasite or virus in culture
Conditions: ATCC 29121
Source text: The L-peptides identified from five different phage display libraries were catalogued as described previously and selected sequences were synthesized in D-enantiomeric form by SPPS for further investigation in several biological assays. […]
Bridge positions count the residues as written; N and C are the ends. Square brackets hold non-standard residues; d marks the D form. Peptide text beside a SMILES is read from it.
Answers are plain numbers, in µg/mL.

CC[C@@H](C)[C@@H](NC(=O)[C@@H](Cc1ccc(O)cc1)NC(=O)[C@H](N)Cc1c[nH]cn1)C(=O)N[C@H](CC(=O)O)C(=O)N[C@H](Cc1ccccc1)C(=O)N[C@H](CCCNC(=N)N)C(=O)N[C@H](Cc1c[nH]c2ccccc12)C(N)=O [P8, HYIDFRW] (H-[dH][dY][dI][dD][dF][dR][dW]-NH2): 64
CC[C@@H](C)[C@H]1NC(=O)[C@@H](CO)NC(=O)[C@H](N)CSSC[C@H](C(N)=O)NC(=O)[C@@H](Cc2c[nH]cn2)NC(=O)[C@@H]([C@H](C)O)NC(=O)[C@@H](CC(C)C)NC(=O)[C@@H](CO)NC(=O)[C@@H](CO)NC1=O [P11, CSISSLTHC] (H-[dC][dS][dI][dS][dS][dL][dT][dH][dC]-NH2; disulfide 1-9): 32

I need MIC E. faecalis for every entry listed below, if you could help.
1. CC(C)C[C@H]1NC(=O)[C@H](N)CSSC[C@H](C(N)=O)NC(=O)[C@@H](Cc2c[nH]c3ccccc23)NC(=O)[C@@H](CCCCN)NC(=O)[C@@H](CCC(=O)O)NC(=O)CNC(=O)[C@@H](CC(C)C)NC(=O)[C@@H](CCCCN)NC1=O [P9, CLKLGEKWC] (H-[dC][dL][dK][dL]G[dE][dK][dW][dC]-NH2; disulfide 1-9)
2. CC(C)C[C@@H](NC(=O)[C@@H](CC(N)=O)NC(=O)[C@@H](CO)NC(=O)CNC(=O)[C@H](N)C(C)C)C(=O)N[C@H](CCCNC(=N)N)C(=O)N[C@H](CC(C)C)C(=O)N[C@H](CC(C)C)C(=O)N[C@H](Cc1c[nH]cn1)C(=O)N[C@H](CCC(N)=O)C(=O)N[C@H](Cc1c[nH]c2ccccc12)C(=O)N[C@H](CCCCN)C(N)=O [P3, VGSNLRLLHQWK] (H-[dV]G[dS][dN][dL][dR][dL][dL][dH][dQ][dW][dK]-NH2)
3. CC(C)C[C@H]1NC(=O)[C@H](N)CSSC[C@H](C(N)=O)NC(=O)[C@@H]([C@H](C)O)NC(=O)[C@@H](C)NC(=O)CNC(=O)[C@@H]([C@H](C)O)NC(=O)[C@@H](CO)NC(=O)[C@@H](Cc2c[nH]c3ccccc23)NC1=O [P12, CLWSTGATC] (H-[dC][dL][dW][dS][dT]G[dA][dT][dC]-NH2; disulfide 1-9)
4. CC(C)[C@@H](N)C(=O)N[C@H](Cc1c[nH]cn1)C(=O)N[C@H](Cc1c[nH]c2ccccc12)C(=O)N[C@H](CC(=O)O)C(=O)N[C@H](Cc1ccccc1)C(=O)N[C@H](CCCNC(=N)N)C(=O)N[C@H](CCC(N)=O)C(=O)N[C@H](Cc1c[nH]c2ccccc12)C(=O)N[C@H](Cc1c[nH]c2ccccc12)C(=O)N[C@H](CCC(N)=O)C(=O)N1CCC[C@@H]1C(=O)N[C@H](CO)C(N)=O [P4, VHWDFRQWWQPS] (H-[dV][dH][dW][dD][dF][dR][dQ][dW][dW][dQ][dP][dS]-NH2)
5. CC[C@@H](C)[C@H]1NC(=O)[C@@H](CC(N)=O)NC(=O)[C@@H](CC(=O)O)NC(=O)[C@H](N)CSSC[C@H](C(N)=O)NC(=O)[C@@H](C(C)C)NC(=O)[C@H]2CCCN2C(=O)[C@@H]([C@H](C)O)NC(=O)[C@@H](CCSC)NC1=O [P13, CDNIMTPVC] (H-[dC][dD][dN][dI][dM][dT][dP][dV][dC]-NH2; disulfide 1-9)

Solution:
1. 64
2. 32
3. 128
4. 32
5. 128
